Reported Total Cell Count by item:
Tested on: Fibroblast
Assay: Multiplex assay against human fibroblast
Assay type: toxicity, cell-based
Settings: 48 h, 10 µM, compound concentration 10 uM, replicate 2
Answer field: number only, no words.

| SMILES ENTRY | Total Cell Count |
| --- | --- |
| COc1ncc(-c2ccc3nccc(-c4ccnnc4)c3c2)cc1NS(=O)(=O)c1ccc(F)cc1F | 86 |
| CN1CCN(c2ccc(OC(F)(F)F)c(Nc3ncc4c(n3)-c3c(c(C(N)=O)nn3CCO)CC4)c2)CC1 | 241 |
| Cc1nc(-c2ccc(-c3ccc(C(=O)N4CCc5cc6c(cc54)C4(CCN(C)CC4)CO6)cc3)c(C)c2)no1 | 127 |

Turning to the following molecule.
# input Using the record for CC(C)(O)CNc1ncc(-c2ccnc(Nc3ccnc(Cl)c3)n2)c(CC2CC2)n1 , report its Total Cell Count.
# output 106

* * *

Reported Population Healthy Nuclei (%) by item:
System: Fibroblast
Experiment: Multiplex assay against human fibroblast
Assay type: toxicity, cell-based
Settings: 12 h, 10 µM, compound concentration 10 uM, replicate 1
Hey, just the number and the unit after it is fine.

| COMPOUND | VALUE REPORTED |
| --- | --- |
| COc1cc(-n2cnc3cc(-c4ccc(Cl)cc4)sc3c2=O)ccc1OCCN1CCCC1 | 26% |

# input Using the record for COc1ncc(-c2ccc3nccc(-c4ccnnc4)c3c2)cc1NS(=O)(=O)c1ccc(F)cc1F , report its Population Healthy Nuclei (%).
# output 38%

# input Another: O=C1NCN(c2ccccc2)C12CCN(CCCOc1ccc(F)cc1)CC2 [SPIRAMIDE]
# output 44%

# input Another: CNCc1ccc(-c2cc(-c3nc(-c4ccc(S(=O)(=O)C(C)C)cc4)cnc3N)on2)cc1
# output 21%

# input Another: C=CC(=O)Nc1cc2c(Nc3ccc(F)c(Cl)c3)ncnc2cc1OCCCN1CCOCC1.Cl.Cl [CANERTINIB DIHYDROCHLORIDE]
# output 45%

# input Another: Cc1csc2c(N[C@@H](C)CN3CCN(S(=O)(=O)c4ccc(Cl)c(Cl)c4)CC3)ncnc12
# output 29%

# input Another: CN1CCC[C@@H]1CCO[C@](C)(c1ccccc1)c1ccc(Cl)cc1.O=C(O)/C=C/C(=O)O [CLEMASTINE FUMARATE]
# output 43%

# input Another: Cl.N#Cc1ccc2[nH]cc(CCCCN3CCN(c4ccc5oc(C(N)=O)cc5c4)CC3)c2c1 [VILAZODONE HYDROCHLORIDE]
# output 18%

* * *

Tested on: U2OS
Assay: Multiplex assay against U2OS
Format: toxicity, cell-based
Conditions: human, 24 h, 10 µM, compound concentration 10 uM, replicate 2
Mark not fulfilled for Population Pyknosed Nuclei (%) values under 30%, and fulfilled for everything at or above.

Completed entries (count: 3):
| COMPOUND | LABEL CLASS |
| --- | --- |
| C=CC(=O)Nc1cccc(C(=O)Nc2ccc(Nc3cc(-c4[nH]c(SC)nc4C)ccn3)cc2)c1 | not fulfilled |
| Cc1cc(C)cc(-c2cnc3cc(Cl)c(-c4cccc(O)c4)cc3c2OCCCN)c1 | fulfilled |
| C[C@@H](NCCCc1cccc(C(F)(F)F)c1)c1cccc2ccccc12.Cl [CINACALCET HYDROCHLORIDE] | fulfilled |

# input Does the compound Cc1[nH]c(/C=C2\C(=O)Nc3ccc(S(=O)(=O)N(C)c4cccc(Cl)c4)cc32)c(C)c1C(=O)N1CCN(C)CC1 have recorded Population Pyknosed Nuclei (%) that is 30% or more?
# output not fulfilled

# input Another: CN1CCC[C@@H]1CCO[C@](C)(c1ccccc1)c1ccc(Cl)cc1.O=C(O)/C=C/C(=O)O [CLEMASTINE FUMARATE]
# output fulfilled

# input Another: Cl.N#Cc1ccc2[nH]cc(CCCCN3CCN(c4ccc5oc(C(N)=O)cc5c4)CC3)c2c1 [VILAZODONE HYDROCHLORIDE]
# output fulfilled

* * *

Test system: HEK-293T
Experiment: Multiplex assay against HEK293T
Format: toxicity, cell-based
Details: human, 48 h, 1 µM, compound concentration 1 uM, replicate 1
Mark not met for Population Hoechst High Intensity Objects (%) values under 10%, and met for everything at or above.

| COMPOUND | TGT | LABEL CLASS |
| --- | --- | --- |
| Cc1c(-c2ccc(O)cc2)n(Cc2ccc(OCCN3CCCCCC3)cc2)c2ccc(O)cc12 | HEK-293T | not met |
| CC(C)NCC(O)COc1ccc(CCOCC2CC2)cc1.Cl (stereo not drawn) [BETAXOLOL HYDROCHLORIDE] | HEK-293T | not met |
| Cl.N#Cc1ccc2[nH]cc(CCCCN3CCN(c4ccc5oc(C(N)=O)cc5c4)CC3)c2c1 [VILAZODONE HYDROCHLORIDE] | HEK-293T | not met |
| Cn1cc(-c2[nH]c3cc(NC(=O)[C@H](N)C4CCCCC4)cc4c3c2C=NNC4=O)cn1 | HEK-293T | met |

# input Does the compound CN1CCCC(n2nc(Cc3ccc(Cl)cc3)c3ccccc3c2=O)CC1.Cl (stereo not drawn) [AZELASTINE HYDROCHLORIDE] have recorded Population Hoechst High Intensity Objects (%) that is 10% or more?
# output met

# input Another: O=C1NCN(c2ccccc2)C12CCN(CCCOc1ccc(F)cc1)CC2 [SPIRAMIDE]
# output not met

# input Another: CN(C)C(=O)/C(C#N)=C/c1ccc(-c2nc3cnc4[nH]ccc4c3n2C2CCCCC2)o1
# output met

# input Another: OC1(c2ccc(Cl)cc2)CCN(Cc2c[nH]c3ccccc23)CC1
# output met

* * *

Test system: U2OS
Assay: Multiplex assay against U2OS
Format: toxicity, cell-based
Conditions: human, 48 h, 1 µM, compound concentration 1 uM, replicate 2
Reported Population Apoptotic (%) by item:
Quick note: give the figure in %, leave out the unit.

| COMPOUND | Population Apoptotic (%) |
| --- | --- |
| C[C@@H](NCCCc1cccc(C(F)(F)F)c1)c1cccc2ccccc12.Cl [CINACALCET HYDROCHLORIDE] | 54 |
| CN1CCN(c2ccc(OC(F)(F)F)c(Nc3ncc4c(n3)-c3c(c(C(N)=O)nn3CCO)CC4)c2)CC1 [ONVANSERTIB] | 53 |
| Cc1cc(C)cc(-c2cnc3cc(Cl)c(-c4cccc(O)c4)cc3c2OCCCN)c1 | 54 |

Turning to the following compound.
# input Using the record for CN(C)CC#Cc1ccc(OCCCc2sc(N3CCc4cccc(C(=O)Nc5nc6ccccc6s5)c4C3)nc2C(=O)O)c(F)c1 [A-1155463] , report its Population Apoptotic (%).
# output 77

* * *

System: Fibroblast
Assay: Multiplex assay against human fibroblast
Assay type: toxicity, cell-based
Conditions: 24 h, 10 µM, compound concentration 10 uM, replicate 2
Mark False for Total Cell Count values under 80, and True for everything at or above.

Completed entries (count: 5):
| COMPOUND | LABEL CLASS |
| --- | --- |
| CCN(CC)CCCCNc1ncc2cc(-c3cc(OC)cc(OC)c3)c(NC(=O)NC(C)(C)C)nc2n1 [PD-173074] | True |
| Cc1[nH]c(/C=C2\C(=O)Nc3ccc(S(=O)(=O)N(C)c4cccc(Cl)c4)cc32)c(C)c1C(=O)N1CCN(C)CC1 | False |
| C[C@@H](NCCCc1cccc(C(F)(F)F)c1)c1cccc2ccccc12.Cl [CINACALCET HYDROCHLORIDE] | False |
| Cn1cc(-c2[nH]c3cc(NC(=O)[C@H](N)C4CCCCC4)cc4c3c2C=NNC4=O)cn1 | True |
| Cc1csc2c(N[C@@H](C)CN3CCN(S(=O)(=O)c4ccc(Cl)c(Cl)c4)CC3)ncnc12 | False |

Please find the next compound below.
# input Does the compound CN1CCN(c2ccc(OC(F)(F)F)c(Nc3ncc4c(n3)-c3c(c(C(N)=O)nn3CCO)CC4)c2)CC1 [ONVANSERTIB] have recorded Total Cell Count that is 80 or more?
# output False

* * *

Tested on: Fibroblast
Test: Multiplex assay against human fibroblast
Format: toxicity, cell-based
Conditions: 24 h, 10 µM, compound concentration 10 uM, replicate 2
Reported Population Tubulin-Different-Phenotype (%) by item:
Quick note: give the figure in %, leave out the unit.

Worked cases, answers included:
| COMPOUND | VALUE REPORTED |
| --- | --- |
| CN1CCC[C@@H]1CCO[C@](C)(c1ccccc1)c1ccc(Cl)cc1.O=C(O)/C=C/C(=O)O [CLEMASTINE FUMARATE] | 26 |
| CC[C@H](C)C(=O)O[C@H]1C[C@@H](C)C=C2C=C[C@H](C)[C@H](CC[C@@H]3C[C@@H](O)CC(=O)O3)[C@H]21 [LOVASTATIN] | 23 |
| CN1CCCC(n2nc(Cc3ccc(Cl)cc3)c3ccccc3c2=O)CC1.Cl (configuration not stated) [AZELASTINE HYDROCHLORIDE] | 100 |
| Cc1nc(-c2cn3c(n2)-c2ccc(-c4cnn(C(C)(C)C(N)=O)c4)cc2OCC3)n(C(C)C)n1 [TASELISIB] | 5 |

# input Using the record for CCN(CC)CCCCNc1ncc2cc(-c3cc(OC)cc(OC)c3)c(NC(=O)NC(C)(C)C)nc2n1 [PD-173074] , report its Population Tubulin-Different-Phenotype (%).
# output 19

# input Another: COc1ncc(-c2ccc3nccc(-c4ccnnc4)c3c2)cc1NS(=O)(=O)c1ccc(F)cc1F [OMIPALISIB]
# output 42

# input Another: CN(C)C(=O)N[C@H]1CC[C@H](CCN2CCN(c3cccc(Cl)c3Cl)CC2)CC1.Cl [CARIPRAZINE HYDROCHLORIDE]
# output 95
